Target: T1, recombinant, soluble human ASGR-1 (human, UniProt P07306 62-291)
T1 construct: biotinylated in the binning assay; also called soluble huASGR-1; Soluble ASGR-1 (Amgen)
T1 sequence: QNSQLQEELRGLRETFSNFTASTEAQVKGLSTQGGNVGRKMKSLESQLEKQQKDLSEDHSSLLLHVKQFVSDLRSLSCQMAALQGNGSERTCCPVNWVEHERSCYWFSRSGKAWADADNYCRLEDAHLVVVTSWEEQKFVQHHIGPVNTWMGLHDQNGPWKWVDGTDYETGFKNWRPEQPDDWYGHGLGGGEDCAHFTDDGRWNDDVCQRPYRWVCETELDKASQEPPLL
Experiment: Octet BLI dissociation, pH 5.6 plus calcium
readout-kind: % Change Compared to pH 7.4 + Calcium (%)

binder | reading
70D1 (antibody, V domains shown, hybridoma mAb) VH: QVQLVQSGAEVKKPGASVKVSCKASGYTFTGYHMHWVRQAPGQGLEWMGWINPNSNATNYAQKFQGRVTMTRDTSISTAYMELSRLRSDDTAVYYCARDSISSWDYWGQGTLVTVSS VL: DIQMTQSPSSVSASVGDRVTITCRASQGVSRWLAWYQQKPGKAPKLLIYAASSLQSGVPSRFSGSGSGTDFTVTISSLQPEDFATYYCQQANSFPFTFGPGTKVDIK | 12
7E11 (antibody, V domains shown, hybridoma mAb) VH: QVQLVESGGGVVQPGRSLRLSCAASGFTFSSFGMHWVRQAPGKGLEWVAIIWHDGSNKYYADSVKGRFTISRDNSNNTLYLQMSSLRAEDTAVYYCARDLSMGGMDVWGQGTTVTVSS VL: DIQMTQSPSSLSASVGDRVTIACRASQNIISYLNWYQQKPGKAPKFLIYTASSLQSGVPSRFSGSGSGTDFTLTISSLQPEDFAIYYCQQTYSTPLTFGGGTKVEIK | 5
194A4 (antibody, V domains shown, hybridoma mAb) VH: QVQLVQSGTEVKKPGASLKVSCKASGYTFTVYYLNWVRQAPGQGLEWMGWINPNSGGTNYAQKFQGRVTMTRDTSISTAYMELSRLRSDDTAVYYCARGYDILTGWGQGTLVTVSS VL: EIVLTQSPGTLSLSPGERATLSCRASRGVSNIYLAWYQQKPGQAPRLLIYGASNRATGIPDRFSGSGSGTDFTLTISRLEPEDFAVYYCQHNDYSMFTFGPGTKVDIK | -7
196C7 (antibody, V domains shown, hybridoma mAb) VH: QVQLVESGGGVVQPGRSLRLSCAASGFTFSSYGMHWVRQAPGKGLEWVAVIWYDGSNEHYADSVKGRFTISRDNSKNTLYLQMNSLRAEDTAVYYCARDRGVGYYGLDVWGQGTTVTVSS VL: DIQMTQSPSSLSASVGDRVTITCRANQAISNYLAWFQQKPGKAPKSLIYAASSLQSGVPSKFSGSGSGTDFTLTISSLQPEDFATYYCQHYLTYPLTFGGGTKVEIK | -12
192G6 (antibody, V domains shown, hybridoma mAb) VH: QVQLVESGGGVVQPGRSLRLSCAASGFTFSSYGMHWVRQAPGKGLEWVAVLWYDGTNKNYADSVKGRFTISRDNSKNTLYLQMNSLRAEDTAVYYCARDQGVGYDGLDVWGQGTTVTVSS VL: DIKMTQSPSSLSASVGDRVTITCRTSQGIGNYLAWFQQKPGKAPKSLLYKASSLQSGVPSKFSGSGSGTDFTLTISSLQPEDFATYYCQQYMTYPLTFGGGTKVEIK | -6
219H1 (antibody, V domains shown, hybridoma mAb) VH: QVQLVESGGGVVQPGRSLRLSCAASGFTFSRYGMHWVRQAPGKGLEWVAVIWYDGSNKHYADSVKGRFTISRDNSKNTLYLQMNSLRGEDTAVYYCARDRGVGYNGMDVWGQGTTVTVSS VL: DIQMTQSPSSQSASVGDRVTITCRASQGISNYLDWFQQKPGKAPKSLIYSASNLQSGVPSKFSGSRSGTDFTLTISSLQPEDFATYYCQHYSNYPLTFGGGTKVEIK | -3
74C8 (antibody, V domains shown, hybridoma mAb) VH: QVQLVESGGGVVQPGRSLRLSCAASGFTFSSYGMHWVRQAPGKGLEWVAVIWYDGSNKNYADSVKGRFTISRDNSKNTLYLQMNSLRAEDTAVYYCARDGSYGYDGLDYWGQGTLVTVSS VL: DIQMTQSPSSLSASVGDRVTITCRASQGIGKYLAWFQQKPGKAPKSLIYTTSNLQSGAPSKFSGSGSGTDFTLTISSLQYEDFATYYCQQYSNYPLTFGGGTKVEIN | -7
63G7 (antibody, V domains shown, hybridoma mAb) VH: EVQLVESGGGLVQPGGSLRLSCAASGFTFSSYSMNWVRQAPGKGLEWVSYISSSTSTIYYAASVKGRFTISRDNAKNSLYLQMNSLRDEDTAVYYCARDHRYYDSSGYYSDAFDIWGQGTMVTVSS VL: NFMLTQPHSVSESPGKTVTISCTRSNGSIVSNYVQWYQQRPGSSPTTMIYEDSRRPSGVPDRFSGSIDSSSNSASLTISGLKTEDEADYSCQSYDGINVVFGGGTKLTVL | 15
204G6 (antibody, V domains shown, hybridoma mAb) VH: QVQLVESGGGVVQPGRSLRLSCTASGFTFSSYGMHWVRQAPGKGLEWVAVIWYDGSNKNYADSVKGRFTISRDNSKNTLYLQMNSLRAEDTAVYYCARDRGVGYDGMDVWGQGTTVTVSS VL: DIRMTQSPSSLSASVGDRITITCRTSQGIGNYLAWFQQKPGKAPKSLIYAASSLQSGVPSRFSGSGSGTDFTLTISSLQPEDFATYYCQHYLSYPLTFGGGTKVEIK | -11
45B4 (antibody, V domains shown, hybridoma mAb) VH: QVQLVESGGGVVQPGRSLRLSCAASGFTFSDCVMHWVRQAPGKGLEWVAVIWYDGSNKYYADSVKGRFTISRDNSKNTLYLQMNSLRAEDTAVYYCARERYSSGLYDYGMDVWGQGTTVTVSS VL: DIQMTQSPSSLSASVGDRVTFTCRASQGIRDDLGWYQQKPGKAPKRLIYAASSLQSGVPSRFSGSGSGTEFTLTISSLQPEDFATYYCLQHYSYPRTFGQGTKVEIK | 10
